method description: in vivo
protocol conditions: mouse, plasma, po, 20 mg/kg
Description: Plasma concentration in mouse at 20 mg/kg, po after 6 hrs
metric: concentration at 6 h

input: Reported concentration at 6 h for Cc1c(C)n(Cc2ccc(-c3ccccc3C(=O)O)cc2)c2ccc(C(=O)N[C@@H](C)c3ccc(C(C)(C)C)cc3)cc12 : what is it?
output: 1.9 µM

input: What value of measured concentration at 6 h is listed for Cc1c(C)n(Cc2ccc(-c3ccccc3C(=O)NO)cc2)c2ccc(C(=O)N[C@@H](C)c3cccc(C(C)C)c3)cc12 ?
output: 0.03 µM

input: Sample Cc1c(C)n(Cc2ccc(-c3ccccc3C(N)=O)cc2)c2ccc(C(=O)N[C@@H](C)c3cccc(C(C)C)c3)cc12 — what was its concentration at 6 h?
output: 0.1 µM

input: Record request: concentration at 6 h value, item Cc1c(C)n(Cc2ccc(-c3ccccc3-c3n[nH]c(=O)o3)cc2)c2ccc(C(=O)N[C@@H](C)c3cccc(C(C)C)c3)cc12
output: 0.01 µM

input: So what's the measured concentration at 6 h for this one? Cc1c(C)n(Cc2ccc(-c3ccccc3C(=O)O)cc2)c2ccc(C(=O)N[C@@H](C)c3cccc(C4CC4)c3)cc12
output: 2.4 µM
